# Test system: MDA-MB-231 breast
# Measurement Description: NCI-60 one-dose screen, 48 h (100 = growth as untreated, 0 = no growth, -100 = all killed)
# Condition Description: 10 µM unless noted
This is part of a sample that, as a whole, favours compounds with a hit. Of some 83,000 tested, about 20% had one in any assay. Activity calls are given as the source filed them. Rule for the calls: active = growth percent below 10; inactive = the rest.
Measurement Kind: growth

Worked set:
Cc1cnc([C@]23CC[C@@H](C)[C@H](C)[C@H]2C2=CC[C@@H]4[C@@]5(C)Cc6c([nH]c7ccccc67)C(C)(C)[C@@H]5CC[C@@]4(C)[C@]2(C)CC3)o1
38.3% [100 µM] (inactive)
O=C1COCCN1c1ccc(NCc2cn(Cc3ccccc3)c3ccccc23)cc1
86.7% (inactive)

Let us examine a further case.
Need growth, item C=C(C)[C@@H]1CC[C@]2(C(N)=O)CC[C@]3(C)[C@H](CC[C@@H]4[C@@]5(C)C/C(=C/c6cccnc6)C(=O)C(C)(C)[C@@H]5CC[C@]43C)[C@@H]12
0.809% [100 µM] (active)

====

# System: A549/ATCC NSCLC
# Measurement Description: NCI-60 one-dose screen, 48 h
# Condition Description: 10 µM unless noted
This is part of a sample that, as a whole, favours compounds with a hit. Of some 83,000 tested, about 20% had one in any assay. Calls of active or inactive are those of the source. Rule for the calls: active = growth percent below 10; inactive = the rest.
Just give me one of these, please: 1 for active, 0 for inactive

O=C(O)CSCc1nnc2n(Cc3ccccc3)c(=O)c3c4c(sc3n12)CCCC4
0

I'd appreciate the recorded outcome for C=C(C)[C@@H]1CC[C@]2(COCCC#N)CC[C@]3(C)[C@H](CC[C@@H]4[C@@](C)(CCCNCCC#N)[C@H](C(=C)C)CC[C@]43C)[C@@H]12 from this test.
0

Would you mind doing CC1(C)[C@@H](NOCCCN)CC[C@]2(C)[C@H]3C(=O)C=C4[C@@H]5C[C@](C)(C(=O)O)CC[C@]5(C)CC[C@@]4(C)[C@]3(C)CC[C@@H]12 as well?
1

Would you mind doing O=[N+]([O-])c1cc([N+](=O)[O-])c(NN=C(c2ccc(O)cc2)c2ccc(O)cc2)cc1Cl as well?
1

Would you mind doing CCN(CC)c1ccc2cc(C(Nc3ccc(C)cc3)c3nnnn3C(C)(C)C)c(=O)oc2c1 (stereo not drawn) as well?
0

Would you mind doing COc1ccc(-c2cc(-c3ccc(OC)c(OC)c3)nc(SCCCCCC(=O)NO)n2)cc1 as well?
0

Would you mind doing N/C(=N\c1nc2ccccc2[nH]1)NC(=O)Cc1cccc2ccccc12 as well?
0

Would you mind doing O=C(NCc1ccccc1)C(Cl)Cl as well?
0

====

# System: ACHN renal
# Measurement Description: NCI-60 one-dose screen, 48 h
# Condition Description: 10 µM unless noted
This is part of a sample that, as a whole, favours compounds with a hit. Of some 83,000 tested, about 20% had one in any assay. Active and inactive are the calls of the source. The calls were made as follows: active = growth percent below 10; inactive = the rest.
Just give me one of these, please: active, inactive

Check out these entries, answers already filled in.
COc1cc(C)cc2oc3oc(=O)c(C(=O)c4cc5cc(Br)ccc5o4)cc3c(=O)c12
inactive
COc1ccc(/C=C(/C(=O)c2ccc(Cl)cc2)C(=O)C(F)(F)F)cc1
inactive
Ic1ccc2[nH]cc(SSc3c[nH]c4ccc(I)cc34)c2c1
inactive
O=C(O)CSCc1nnc2n(Cc3ccccc3)c(=O)c3c4c(sc3n12)CCCC4
inactive

I'd appreciate the recorded outcome for Cc1ccc(Oc2c(/C=N/NC(=O)Cn3c(=O)sc4ccccc43)c(C)nn2-c2ccccc2)cc1 from this test.
inactive

Would you mind doing O=C(O)CC1CCCCC1c1ccccc1 (centres undefined) as well?
inactive

====

# Tested on: UACC-257 melanoma
# Measurement Description: NCI-60 one-dose screen, 48 h
# Condition Description: 10 µM unless noted
Compounds without any hit were thinned out: in the full panel of roughly 83,000, 20% have a hit. Activity calls are given as the source filed them. The calls were made as follows: active = growth percent below 10; inactive = the rest.
Just give me one of these, please: active, inactive

Check out these entries, answers already filled in.
c1coc2occoc=2o1
inactive
C=C(C)[C@@H]1CC[C@]2(C(=O)NCCNCCNC(=O)OC(C)(C)C)CC[C@]3(C)[C@H](CC[C@@H]4[C@@]5(C)CCC(=O)C(C)(C)[C@@H]5CC[C@]43C)[C@@H]12
inactive
COC(=O)[C@H](CC(C)C)NC(=O)NC(=O)NC(=O)CI
inactive
COc1ccc(/C=C(/C(=O)c2ccc(Cl)cc2)C(=O)C(F)(F)F)cc1
inactive
COc1ccc(C2CC(c3cc(OC)c(OC)c(OC)c3)=NN2C(C)=O)cc1OCC(=O)Nc1nc2ccc(C(F)(F)F)cc2s1 (configuration not stated)
inactive

I'd appreciate the recorded outcome for c1cc2ccc1CNCCN1CCNCc3ccc(cc3)Oc3ccc(cc3)CNCCN(CCNCc3ccc(cc3)O2)CCNCc2ccc(cc2)Oc2ccc(cc2)CNCC1 from this test.
inactive

Would you mind doing CCOC(=O)c1c[nH]n2c(=S)ncnc12 as well?
inactive

Would you mind doing COc1ccc(NC(=O)Nc2ccc(-c3cccnc3)cc2N2CCC(CO)CC2)cc1 as well?
inactive

Would you mind doing CC1(C)OC2[C@@H](CNC(=O)NC(=O)NC(=O)CI)O[C@@H](n3cnc4c(NC(=O)Nc5ccccc5)ncnc43)[C@H]2O1 (some centres not stated) as well?
inactive

Would you mind doing O=C(NCCO)c1cccnc1 as well?
inactive

Would you mind doing Nc1cc(C(=O)O)[nH]c(=S)n1 as well?
inactive

Would you mind doing Cc1ccc(NC(=S)/N=c2/n(-c3ccccc3)nc3n2CCN3C2=NCCN2)cc1 as well?
inactive

Would you mind doing COC(=O)c1cc(O)c2c(c1C(=O)OC)C[C@H]1[C@@H]3CC=C4C[C@@H](O)CC[C@]4(C)[C@H]3CC[C@]21C as well?
inactive

Would you mind doing Cc1cnc(N)nc1OCCNC(=O)c1cccc(-c2ccc(S(=O)(=O)Nc3ccc4c(c3)N(C(=O)C3CC3)CCC4)cc2)c1 as well?
inactive

Would you mind doing COc1ccc2[nH]c(C(=O)N3CCN(C(=O)OCc4ccc5c(Br)cc(Br)c(O)c5n4)CC3)cc2c1 as well?
active

Would you mind doing CCCCNC(=O)NS(=O)(=O)Cc1ccccc1 as well?
inactive

Would you mind doing CCOC(=O)COc1c(C)cc(SSc2cc(C)c(OCC(=O)OCC)c(C)c2)cc1C as well?
inactive

Would you mind doing CC(C)CCSC1=CC(=O)c2ccccc2C1=O as well?
inactive

Would you mind doing COc1cc2c(c(Br)c1N)-c1cc(Br)c(N)cc1C2=O as well?
inactive

Would you mind doing O=C(NCCCNC(=O)OCc1ccc2cccc(O)c2n1)OCc1ccc2cccc(O)c2n1 as well?
inactive

Would you mind doing O=S(=O)(NCCCNc1nccc(-c2c(-c3cccc(F)c3)nc3occn23)n1)c1cccc2ccccc12 as well?
inactive

Would you mind doing C=CC1=C(C)C2=NC1=CC1=NC(=CC3=C(C)C4=C(O)C(C(=O)O)C(=C5NC(=C2)C(C)C5CCC(=O)O)C4=N3)C(CC)=C1C (configuration not stated) as well?
inactive

Would you mind doing O=C(OCc1ccc2c(Cl)cc(Cl)c(O)c2n1)N1CCNCC1 as well?
inactive

Would you mind doing CCC(Br)(CC)C(=O)c1ccc(OCC(=O)O)c(Cl)c1Cl as well?
inactive

Would you mind doing O=C(CSc1nc2ccc([N+](=O)[O-])cc2[nH]1)Nc1ccc(F)c(Cl)c1 as well?
inactive

Would you mind doing CO[C@H]1CC[C@@]2(C)C(=CC[C@H]3[C@@H]4C[C@H](O)C[C@@]4(C)CC[C@@H]32)C1 as well?
inactive

Would you mind doing CCNC(=O)N1CCc2c(Cl)c3c(c(OC)c2[C@@H]1[C@H]1OCc2c1ccc(OC)c2OC)OCCO3 as well?
inactive

Would you mind doing Cc1ncc(C(=O)Nc2ccc(CN3CCN(C)CC3)c(C(F)(F)F)c2)cc1C#Cc1c(N)ncc2ccc(C#N)cc12 as well?
active

Would you mind doing CC1=CCc2ccccc21 as well?
inactive

Would you mind doing N#C/C(C(=O)c1ccccc1)=C1/C(=O)Nc2ccc(F)cc21 as well?
inactive

====

# Test system: NCI-H226 lung
# Measurement Description: NCI-60 one-dose screen, 48 h
# Condition Description: 10 µM unless noted
Compounds without any hit were thinned out: in the full panel of roughly 83,000, 20% have a hit. Calls of active or inactive are those of the source. The calls were made as follows: active = growth percent below 10; inactive = the rest.
Just give me one of these, please: active, inactive

Check out these entries, answers already filled in.
O=C(NCCCNC(=O)OCc1ccc2cccc(O)c2n1)OCc1ccc2cccc(O)c2n1
inactive
COc1ccc(NC(=O)Nc2ccc(-c3cccnc3)cc2N2CCC(CO)CC2)cc1
inactive
O=C1/C(=C\c2cn(CC(O)CN3CCCCC3)c3ccccc23)c2ccccc2N1c1c(Cl)cccc1Cl (stereo not given)
active
CCCC[C@@H](C=O)NC(=O)[C@H](CC(C)C)NC(=O)[C@H](CC(C)C)NC(=O)OCc1ccccc1
active
COc1ccc(C(C(=O)O)c2ccc(OC)cc2)cc1
inactive
C[n+]1c2ccccc2nc2c(N)cc(N)cc21
inactive

I'd appreciate the recorded outcome for Cc1ccc(Cn2c(O)c(N=NC(=O)c3ccc(S(N)(=O)=O)cc3)c3ccccc32)cc1 from this test.
inactive

Would you mind doing CCN(CC)CCCC(C)Nc1ccnc2cc(Cl)c(SCc3ccccc3)cc12 (stereo not given) as well?
inactive

Would you mind doing Nc1cc(Cl)cc2cccnc12 as well?
inactive

Would you mind doing O=C(CCN1CCCCC1)c1ccc2ccccc2c1 as well?
inactive

Would you mind doing O=[N+]([O-])c1ccc(O)c(-c2nc3ccccc3s2)c1 as well?
inactive

Would you mind doing Nc1cc(N)c(N=Nc2ccc(S(=O)(=O)O)cc2)cc1N=Nc1ccc(-c2ccc(N=Nc3ccc(O)c(C(=O)O)c3)cc2)cc1 as well?
inactive

Would you mind doing CN(C)C(=S)Sc1ccc([N+](=O)[O-])cc1[N+](=O)[O-] as well?
inactive

Would you mind doing CCOC(=O)c1c[nH]n2c(=S)ncnc12 as well?
inactive

Would you mind doing COc1c(C(C)=O)c(OCCCCOc2c(C(C)=O)c(OC)c3ccoc3c2OC)c(OC)c2occc12 as well?
inactive

Would you mind doing Oc1cc(Nc2ccnc3cc(Cl)ccc23)c2ncccc2c1 as well?
inactive

Would you mind doing CC(C)(C)c1cc(C(=O)Nc2ccc(C(=O)NCCN)cc2)cc(C(C)(C)C)c1 as well?
inactive

Would you mind doing CCc1ccc(-c2ccc(COc3ccc(CC4SC(=O)NC4=O)cc3)cc2)cc1 (stereo not given) as well?
inactive
